Target: Bromodomain-containing protein 4 (Homo sapiens)
Test: Inhibition of BRD4 in human MM1S cells assessed as down regulation of c-Myc expression after 1 hr by Western blot analysis
measurement name: pIC50
The meaning of pIC50 here: minus log10 of the concentration in molar units.

### Prompt Item under review: COc1nnc2ccc(N3CCC(c4ccc(OCCN5CCN(C)C(=O)[C@H]5C)cc4)CC3)nn12 . Reported pIC50?
### Response 8.27

###

System: MDA-MB-453
Assay: Antiproliferative activity against human MDA-MB-453 cells
Assay type: functional, cell-based
measurement name: IC50

### Prompt For MDA-MB-453, provide IC50 of CCn1nc(C2CC2)cc1Nc1nc(C(=O)NCCCOCCOCCOCCCNc2cccc3c2CN(C2CCC(=O)NC2=O)C3=O)nc2[nH]c3cc(-c4c(C)noc4C)c(OC)cc3c12 (stereo unspecified) please.
### Response < 10 nM

###

Test system: Z-138
Experiment: Induction of apoptosis in human ibrutinib-resistant Z138 cells after 48 hrs by Annexin-V/propidium iodide staining based assay
Format: functional, cell-based
Settings: Z-138, 48 h
measurement name: IC50 (nM)
Answer in nM, number only, no unit symbol.

### Prompt For Z-138, provide IC50 of Cc1ncsc1-c1ccc([C@H](C)NC(=O)[C@@H]2C[C@@H](O)CN2C(=O)[C@@H](NC(=O)COCCCOCCNC(=O)C[C@@H]2N=C(c3ccc(Cl)cc3)c3c(sc(C)c3C)-n3c(C)nnc32)C(C)(C)C)cc1 please.
### Response 142

###

Biological target: Bromodomain-containing protein 4 (Homo sapiens)
Experiment: Inhibition of acetylated biotin-labelled RHGSGSK binding to BRD4 bromodomain 2 (unknown origin) after 1 hr by TR-FRET assay
measurement name: pIC50
The meaning of pIC50 here: minus log10 of the concentration in molar units.

### Prompt Item under review: C[C@@H]1C(=O)N(C)c2ccc(-c3ccc(Nc4cccc(S(=O)(=O)N(C)C)c4)cc3)nc2N1C1CCN(C)CC1 . Reported pIC50?
### Response 7.37

###

Molecular target: Bromodomain-containing protein 4 (Homo sapiens, UniProt O60885)
Assay: Binding affinity to human partial length BRD4 bromodomain 1 long isoform (N44 to E168 residues) expressed in bacterial expression system by BROMOscan assay
measurement name: IC50

### Prompt Item under review: Cc1sc2c(c1C)C(c1ccc(Cl)cc1)=N[C@@H](CC(=O)OCCCCCCO)c1nnc(C)n1-2 . Reported IC50?
### Response 0.43 nM

###

Target: Bromodomain-containing protein 4 (Homo sapiens, UniProt O60885)
Experiment: Inhibition of BRD4 bromodomain 2 (unknown origin)
measurement name: Ki (nM)
Answer in nM, number only, no unit symbol.

### Prompt Item under review: COc1ccc2c([nH]c3nc(C)nc(-c4ccnc5ccccc45)c32)c1-c1c(C)noc1C . Reported Ki?
### Response 1.4

###

Molecular target: Bromodomain-containing protein 4 (Homo sapiens, UniProt O60885, Y97A)
Assay: Inhibition of recombinant human N-terminal His6-tagged BRD4 Y97A mutant (1 to 477 residues) expressed in Escherichia coli after 30 mins by Alexa Fluor647 conjugated probe based TR-FRET assay
measurement name: IC50

### Prompt Item under review: CC(=O)N1c2ccc(-c3ccc(C#N)cc3)cc2[C@H](Nc2ncccc2F)[C@@H](C)[C@@H]1C1CC1 . Reported IC50?
### Response < 100 nM

###

Experiment: Oral bioavailability in dog
Format: ADME, organism-based, Canis lupus familiaris
Settings: in vivo
measurement name: bioavailability (%)
Answer in %, number only, no unit symbol.

### Prompt Item under review: CC(=O)N1c2ccc(-c3ccc(C(=O)O)cc3)cc2[C@H](Nc2ccc(Cl)cc2)C[C@@H]1C . Reported bioavailability?
### Response 80

###

Target: Bromodomain-containing protein 4 (Homo sapiens)
Test: Inhibition of biotinylated histone H4 peptide binding to BRD4 bromodomain 2 (333 to 460 residues) (unknown origin) after 60 mins by Alphascreen method
measurement name: IC50

### Prompt Item under review: CC(=O)N1c2ccc(-c3ccc(-c4cnn(C5CC5)c4)c(OC[C@H]4CC4(F)F)c3)cc2CC[C@H]1C . Reported IC50?
### Response < 0.05 µM

###

Examples of compounds with documented pIC50 follow.
Molecular target: Bromodomain-containing protein 4 (Homo sapiens)
Test: Inhibition of acetyl-histone H4 peptide binding to His6-tagged BRD4 (1 to 477 residues) (unknown origin) after 35 mins by TR-FRET assay
pIC50: −log10 of the molar value.

CC(=O)N1CC(n2cc(C3CC3)c3c2C(c2ccc(Cl)cc2)N(c2cc(C)c4nnn(C)c4n2)C3=O)C1 (configuration not stated) = > 7.96

Now consider the entry below.
### Prompt Item under review: Cc1nn(C2CC2)c2c1[C@@H](c1ccc(Cl)cc1)N(c1cc(C)c3nnc(C)n3n1)C2=O . Reported pIC50?
### Response > 7.96

###

System: MOLM-13
Experiment: Antiproliferative activity against human MOLM13 cells after 96 hrs by alamar blue assay
Format: functional, cell-based
Settings: MOLM-13, 96 h
measurement name: pEC50
The meaning of pEC50 here: minus log10 of the concentration in molar units.

### Prompt Item under review: Cc1nnc(C[C@@H]2N=C(c3ccc(Cl)cc3)c3ccccc3-n3c(C)nnc32)o1 . Reported pEC50?
### Response 6.85

###

Molecular target: Bromodomain-containing protein 4 (Homo sapiens)
Assay: Inhibition of biotinylated histone H4 peptide binding to BRD4 bromodomain 1 (44 to 168 residues) (unknown origin) after 60 mins by Alphascreen method
pIC50: −log10 of the molar value.
measurement name: pIC50

### Prompt Item under review: CC(=O)N1c2ccc(-c3ccc(-c4cnn(C5CC5)c4)c(OC[C@H]4CC4(F)F)c3)cc2CC[C@H]1C . Reported pIC50?
### Response > 7.00

###

Biological target: Bromodomain-containing protein 4 (Homo sapiens, UniProt O60885)
Assay: Inhibition of His6-tagged BRD4 (1 to 477 residues) (unknown origin) after 1 hr by Alexa fluor 488-conjugated probe based fluorescence anisotropy
measurement name: IC50 (nM)
Answer in nM, number only, no unit symbol.

COc1cnc2c(ncc3[nH]c(=O)n(Cc4ccccc4)c32)c1-c1c(C)noc1C = 316

Now consider the entry below.
### Prompt Item under review: COc1cnc2c(ncc3[nH]c(=O)n(Cc4ccccc4OC(F)(F)F)c32)c1-c1c(C)noc1C . Reported IC50?
### Response 158

###

Target: Bromodomain-containing protein 4 (Homo sapiens)
Test: Inhibition of His-tagged BRD4 bromodomain 1 (K57 to E168 residues) (unknown origin) by Alexa-647 conjugated probe based TR-FRET assay
Type: single protein
measurement name: pIC50
The meaning of pIC50 here: minus log10 of the concentration in molar units.

Cn1cc2c3c(c[nH]c(=O)c31)CN(c1ccccn1)c1ccc(CS(C)(=O)=O)cc1-2 = 8.96

Now consider the entry below.
### Prompt Item under review: Cn1cc2c3c(c[nH]c(=O)c31)CN(c1ccc(F)cc1F)c1ccc(CS(C)(=O)=O)cc1-2 . Reported pIC50?
### Response 8.74

###

Biological target: Bromodomain-containing protein 4 (Homo sapiens)
Assay: Inhibition of biotin-labelled histone peptide binding to His-tagged BRD4 (unknown origin) expressed in Escherichia coli after 30 mins by TR-FRET assay
pIC50: −log10 of the molar value.
measurement name: pIC50

### Prompt Item under review: COc1ccc2c(ncc3nc(N4CCOCC4)n([C@H](C)COC(F)F)c32)c1-c1c(C)noc1C . Reported pIC50?
### Response 8.00

### Prompt Item under review: COc1ccc2c(ncc3nc(C4CCOCC4)n([C@H](C)COC(F)F)c32)c1-c1c(C)noc1C . Reported pIC50?
### Response 7.68 to 8.00

### Prompt Item under review: COc1ccc2c(ncc3nc(C4CCC(F)(F)CC4)n([C@H](C)COC(F)F)c32)c1-c1c(C)noc1C . Reported pIC50?
### Response 7.68 to 8.00

Reference source: ChEMBL document CHEMBL4368853
